Where do the numbers come from? From paper PMC3594701.

Experiment: IC accumulation: ratio of IC drug to drug in plasma
Test conditions: human, intracellular (PBMC) / plasma, oral, GM IC to Plasma Ratio, AUC (darunavir, ritonavir), group 1; period 2 (day 35): darunavir/ritonavir 800/100 mg once daily + raltegravir 400 mg twice daily
Let's look at some compounds and their measured Kp.
Form field (numeric): enter value without unit.

>>> df
                           substance_smiles  reported_measurement
0  CC(C)CN(C[C@@H](O)[C@H](Cc1ccccc1)NC(=O)O[C@H]1CO[C@H]2OCC[C@H]21)S(=O)(=O)c1ccc(N)cc1                   5.3

What value of Kp has been recorded for this entry: CC(C)c1nc(CN(C)C(=O)N[C@H](C(=O)N[C@@H](Cc2ccccc2)C[C@H](O)[C@H](Cc2ccccc2)NC(=O)OCc2cncs2)C(C)C)cs1
10
